Test system: Bacillus subtilis
EXPERIMENT_SUMMARY: Antimicrobial activity against Bacillus subtilis using pH 4.0 buffer as solvent by agar diffusion test
Type: functional
Consider the following compounds and their measured MIC readings.
The reply should be a number in µg/mL, with the unit left off.

COMPOUND	MEASURED_ON	MIC, µg/mL
CC[C@H]1C[C@H]2C[C@@]3(C(=O)OC)c4[nH]c5cc(OC)c(OC)cc5c4CCN(C2O)[C@@H]13 (stereo partly drawn)	Bacillus subtilis	60
C=CC1CN(C)[C@H]2Cc3c([nH]c4ccccc34)[C@H](c3cc4c5c([nH]c4cc3OC)[C@]3(C(=O)OC)C[C@@H]4C[C@H](CC)[C@@H]3N(CC5)C4O)C[C@H]1C2C(=O)OC (stereo partly drawn)	Bacillus subtilis	8

Next, consider the following compound.
-- ask Notebook entry, Bacillus subtilis assay: MIC of CC[C@H]1C[C@H]2C[C@@]3(C(=O)OC)c4[nH]c5cc(OC)ccc5c4CCN(C2O)[C@@H]13 (stereo partly drawn) = ?
-- reply 50

----------
System: Bacillus subtilis
EXPERIMENT_SUMMARY: Antimicrobial activity against Bacillus subtilis using pH 4.0 buffer as solvent by agar diffusion test
Format: functional
Form field: log10 MIC (one value per entry).
Heads up, the numbers here are log10 of MIC in µg/mL units.

Use these answered entries as a reference point.
COMPOUND	log10 MIC
C=CC1CN(C)[C@H]2Cc3c([nH]c4ccccc34)[C@H](c3cc4c5c([nH]c4cc3OC)[C@]3(C(=O)OC)C[C@@H]4C[C@H](CC)[C@@H]3N(CC5)C4)C[C@H]1C2C(=O)OC (stereo not given in full)	1.18
C=CC1CN(C)[C@H]2Cc3c([nH]c4ccccc34)[C@H](c3c(OC)ccc4c5c([nH]c34)[C@]3(C(=O)OC)C[C@@H]4C[C@H](CC)[C@@H]3N(CC5)C4)C[C@H]1C2C(=O)OC (stereo not given in full)	0.60
C=CC1CN(C)[C@H]2Cc3c([nH]c4ccccc34)[C@H](c3c(OC)ccc4c5c([nH]c34)[C@]3(C(=O)OC)C[C@@H]4C[C@H](CC)[C@@H]3N(CC5)C4O)C[C@H]1C2C(=O)OC (stereo not given in full)	1.15
CN[C@@H]1[C@H](O[C@H]2[C@H](O[C@H]3[C@H](O)[C@@H](O)[C@H](N=C(N)N)[C@@H](O)[C@@H]3N=C(N)N)O[C@@H](C)[C@]2(O)C=O)O[C@@H](CO)[C@H](O)[C@H]1O	0.00

Let us move to another entry and its log10 MIC.
-- ask So what does the record say about log10 MIC for C=CC1CN(C)[C@@H]2Cc3c([nH]c4ccccc34)[C@@H](/C=C3\c4[nH]c5ccccc5c4CN4CC[C@H]3/C(=C\C)C4)C[C@@H]1C2C(=O)OC (stereo not given in full) ?
-- reply 1.70

----------
System: Escherichia coli
EXPERIMENT_SUMMARY: Antimicrobial activity against Escherichia coli using pH 4.0 buffer as solvent by agar diffusion test
Type: functional
QUANTITY: log10(MIC) (log10 of the value in µg/mL)
In plain terms, each number is the log10 of measured MIC in µg/mL.

COMPOUND	EXPERIMENTAL_VALUE
CN[C@@H]1[C@H](O[C@H]2[C@H](O[C@H]3[C@H](O)[C@@H](O)[C@H](N=C(N)N)[C@@H](O)[C@@H]3N=C(N)N)O[C@@H](C)[C@]2(O)C=O)O[C@@H](CO)[C@H](O)[C@H]1O	1.90
CC[C@H]1C[C@H]2C[C@@]3(C(=O)OC)c4[nH]c5cc(OC)ccc5c4CCN(C2O)[C@@H]13 (stereo partly drawn)	2.70
C=CC1CN(C)[C@H]2Cc3c([nH]c4ccccc34)[C@H](c3cc4c5c([nH]c4cc3OC)[C@]3(C(=O)OC)C[C@@H]4C[C@H](CC)[C@@H]3N(CC5)C4O)C[C@H]1C2C(=O)OC (stereo partly drawn)	2.23
C=CC1CN(C)[C@H]2Cc3c([nH]c4ccccc34)[C@H](c3c(OC)ccc4c5c([nH]c34)[C@]3(C(=O)OC)C[C@@H]4C[C@H](CC)[C@@H]3N(CC5)C4)C[C@H]1C2C(=O)OC (stereo partly drawn)	1.85
C=CC1CN(C)[C@H]2Cc3c([nH]c4ccccc34)[C@H](c3c(OC)ccc4c5c([nH]c34)[C@]3(C(=O)OC)C[C@@H]4C[C@H](CC)[C@@H]3N(CC5)C4O)C[C@H]1C2C(=O)OC (stereo partly drawn)	2.88
C=CC1CN(C)[C@@H]2Cc3c([nH]c4ccccc34)[C@@H](/C=C3\c4[nH]c5ccccc5c4CN4CC[C@H]3/C(=C\C)C4)C[C@@H]1C2C(=O)OC (stereo partly drawn)	2.00

Then this compound:
-- ask Entry under review: C=CC1CN(C)[C@H]2Cc3c([nH]c4ccccc34)[C@H](c3cc4c5c([nH]c4cc3OC)[C@]3(C(=O)OC)C[C@@H]4C[C@H](CC)[C@@H]3N(CC5)C4)C[C@H]1C2C(=O)OC (stereo partly drawn) . Reported log10(MIC)?
-- reply 2.04
